# Tested on: Wistar rats
# assay details: Acute oral toxicity on rats
# condition parameters: Phase 2, 5000 mg/kg single oral dose
quantity name: Mortality of rats: rat number end/start

So for Oc1cc(O)c2c(c1)O[C@H](c1cc(O)c(O)c(O)c1)[C@H](O)C2 [EGC, (−)-epigallocatechin] , the logged Mortality of rats: rat number end/start turned out to be 0/3

Lab note: measured Mortality of rats: rat number end/start of Oc1cc(O)c2c(c1)O[C@H](c1cc(O)c(O)c(O)c1)[C@@H](O)C2 [GC, (+)-gallocatechin] was 0/3

Mortality of rats: rat number end/start measured on O=C(O[C@H]1Cc2c(O)cc(O)cc2O[C@@H]1c1ccc(O)c(O)c1)c1cc(O)c(O)c(O)c1 [CG, (+)-catechin-3-O-gallate] = 0/3

Note to self: Mortality of rats: rat number end/start recorded for O=C(OC1Cc2c(O)cc(O)cc2OC1c1ccc(O)c(O)c1)c1cc(O)c(O)c(O)c1 (single isomer, unassigned; (-)) [ECG, (−)-epicatechin-3-O-gallate] was 0/3

// recorded Mortality of rats: rat number end/start for CCCSc1ccc2nc(NC(=O)OC)[nH]c2c1 [Albendazole, reference compound] : 0/3

----------
# assay details: In vitro cytotoxicity (MTT) and CC50 determination
# Type: cell-based
# condition parameters: human; Caco-2, CC50 after 48 h calculated in µM; read-out: Cytotoxicity CC50, Caco-2 (in brackets) (converted)
Give CC50 at 48 h for every item shown.
Write down the numeric answer in µM and omit the unit.

CC50 at 48 h for O=C(OC1Cc2c(O)cc(O)cc2OC1c1cc(O)c(O)c(O)c1)c1cc(O)c(O)c(O)c1 (single isomer, unassigned; (-)) [EGCG, (−)-epigallocatechin-3-O-gallate] is 133

Value of CC50 at 48 h reported for the compound CCCSc1ccc2nc(NC(=O)OC)[nH]c2c1 [Albendazole, reference compound] is 111

So for Oc1cc(O)c2c(c1)O[C@H](c1cc(O)c(O)c(O)c1)[C@H](O)C2 [EGC, (−)-epigallocatechin] , the logged CC50 at 48 h turned out to be 154

Field CC50 at 48 h (entry c1ccc([C@H]2CN3CCSC3=N2)cc1 [Levamisole, reference compound] ) reads 31.2

----------
Give Selectivity Index (SI) C. elegans Wild Type for every item shown.
# System: C. elegans N2 Bristol WT
# assay details: microbe, parasite or virus in culture
# condition parameters: SI = CC50 on Caco-2/LC50 on worm
Would you mind answering with just the numeric figure?

Memo: O=C(O[C@H]1Cc2c(O)cc(O)cc2O[C@@H]1c1ccc(O)c(O)c1)c1cc(O)c(O)c(O)c1 [CG, (+)-catechin-3-O-gallate] , reported Selectivity Index (SI) C. elegans Wild Type: 0.7

Record summary for Oc1cc(O)c2c(c1)O[C@H](c1cc(O)c(O)c(O)c1)[C@H](O)C2 [EGC, (−)-epigallocatechin] : reported Selectivity Index (SI) C. elegans Wild Type = 0.8

What the record says about Oc1cc(O)c2c(c1)O[C@H](c1cc(O)c(O)c(O)c1)[C@@H](O)C2 [GC, (+)-gallocatechin] : Selectivity Index (SI) C. elegans Wild Type is 0.9

Recorded Selectivity Index (SI) C. elegans Wild Type (molecule O=C(OC1Cc2c(O)cc(O)cc2OC1c1cc(O)c(O)c(O)c1)c1cc(O)c(O)c(O)c1 (single isomer, unassigned; (-)) [EGCG, (−)-epigallocatechin-3-O-gallate] ): 1.2

Record O=C(OC1Cc2c(O)cc(O)cc2OC1c1ccc(O)c(O)c1)c1cc(O)c(O)c(O)c1 (single isomer, unassigned; (-)) [ECG, (−)-epicatechin-3-O-gallate] . Reported Selectivity Index (SI) C. elegans Wild Type: 2.0

CCCSc1ccc2nc(NC(=O)OC)[nH]c2c1 [Albendazole, reference compound] yielded Selectivity Index (SI) C. elegans Wild Type of 4.1

----------
I'd be grateful if you could share measured LC50 for these entries.
# System: O. ochengi females
# assay details: microbe, parasite or virus in culture
# Set-up: species or system Onchocerca ochengi
# condition parameters: Onchocerca ochengi, 48 h, read-out: LC50/48 h

# lookup: c1ccc([C@H]2CN3CCSC3=N2)cc1 [Levamisole, reference compound] on O. ochengi females, LC50 = 2.1 mg/L

// assay O. ochengi females, entry O=C(OC1Cc2c(O)cc(O)cc2OC1c1cc(O)c(O)c(O)c1)c1cc(O)c(O)c(O)c1 (single isomer, unassigned; (-)) [EGCG, (−)-epigallocatechin-3-O-gallate] , LC50 value = 1 mg/L

Readout LC50 for Oc1cc(O)c2c(c1)O[C@H](c1cc(O)c(O)c(O)c1)[C@@H](O)C2 [GC, (+)-gallocatechin] , test system O. ochengi females, was 5.5 mg/L

// assay O. ochengi females, entry O=C(OC1Cc2c(O)cc(O)cc2OC1c1ccc(O)c(O)c1)c1cc(O)c(O)c(O)c1 (single isomer, unassigned; (-)) [ECG, (−)-epicatechin-3-O-gallate] , LC50 value = 2.1 mg/L

Short answer on O. ochengi females for Oc1cc(O)c2c(c1)O[C@H](c1cc(O)c(O)c(O)c1)[C@H](O)C2 [EGC, (−)-epigallocatechin] , LC50: 3.3 mg/L

// returns LC50 for CCCSc1ccc2nc(NC(=O)OC)[nH]c2c1 [Albendazole, reference compound] with O. ochengi females; value = 1 mg/L

Note to self: LC50 of O=C(O[C@H]1Cc2c(O)cc(O)cc2O[C@@H]1c1ccc(O)c(O)c1)c1cc(O)c(O)c(O)c1 [CG, (+)-catechin-3-O-gallate] with O. ochengi females was 4.5 mg/L

----------
Kindly supply the reported Mortality of rats: rat number end/start values for the records listed here.
# Test system: Wistar rats
# assay details: Acute oral toxicity on rats
# condition parameters: Phase 1, 10 mg/kg single oral dose

// field: Mortality of rats: rat number end/start; key: O=C(O[C@H]1Cc2c(O)cc(O)cc2O[C@@H]1c1ccc(O)c(O)c1)c1cc(O)c(O)c(O)c1 [CG, (+)-catechin-3-O-gallate] ; value = 0/3

The recorded Mortality of rats: rat number end/start for Oc1cc(O)c2c(c1)O[C@H](c1cc(O)c(O)c(O)c1)[C@H](O)C2 [EGC, (−)-epigallocatechin] is 0/3

Noted for Oc1cc(O)c2c(c1)O[C@H](c1cc(O)c(O)c(O)c1)[C@@H](O)C2 [GC, (+)-gallocatechin] : its Mortality of rats: rat number end/start reads 0/3

Please fill in: Mortality of rats: rat number end/start reported for O=C(OC1Cc2c(O)cc(O)cc2OC1c1ccc(O)c(O)c1)c1cc(O)c(O)c(O)c1 (single isomer, unassigned; (-)) [ECG, (−)-epicatechin-3-O-gallate] = 0/3

For reference, reported Mortality of rats: rat number end/start for CCCSc1ccc2nc(NC(=O)OC)[nH]c2c1 [Albendazole, reference compound] stands at 0/3

----------
Consider the following molecules; for each one, report its LC50.
# Tested on: C. elegans CB211 (lev-1(e211) IV)
# assay details: microbe, parasite or virus in culture
# condition parameters: Caenorhabditis elegans, 48 h, read-out: LC50/48 h (in brackets)
# Procedure: All strains were obtained from the Caenorhabditis Genetic Centre (CGC, Minneapolis, MN, USA). Strains were maintained at 20 °C on nematode growth medium (NGM). All worms were age-synchronized and obtained from eggs that were isolated by bleaching. Young adult (L4 stage) worms were used to assess drug lethality. Monitored endpoint was 48 h mortality. Tests were performed in 24-well plates. […]
Entry rule: numbers only, all in µM.

Query O=C(OC1Cc2c(O)cc(O)cc2OC1c1cc(O)c(O)c(O)c1)c1cc(O)c(O)c(O)c1 (single isomer, unassigned; (-)) [EGCG, (−)-epigallocatechin-3-O-gallate] yields LC50 of 57.4

According to the records, this molecule O=C(OC1Cc2c(O)cc(O)cc2OC1c1ccc(O)c(O)c1)c1cc(O)c(O)c(O)c1 (single isomer, unassigned; (-)) [ECG, (−)-epicatechin-3-O-gallate] displays LC50 of 89.3

The molecule listed as O=C(O[C@H]1Cc2c(O)cc(O)cc2O[C@@H]1c1ccc(O)c(O)c1)c1cc(O)c(O)c(O)c1 [CG, (+)-catechin-3-O-gallate] shows LC50 equal to 218

Reported LC50 ( Oc1cc(O)c2c(c1)O[C@H](c1cc(O)c(O)c(O)c1)[C@H](O)C2 [EGC, (−)-epigallocatechin] ) = 272

The reported LC50 of the molecule Oc1cc(O)c2c(c1)O[C@H](c1cc(O)c(O)c(O)c1)[C@@H](O)C2 [GC, (+)-gallocatechin] was 70.2

----------
Assign Selectivity Index (SI) O. ochengi Females to each entry below.
# Test system: O. ochengi females
# assay details: microbe, parasite or virus in culture
# Design: species or system Onchocerca ochengi
# condition parameters: SI = CC50 on Caco-2/LC50 on worm
// return a plain number; no unit text

Just so you know, measured Selectivity Index (SI) O. ochengi Females for CCCSc1ccc2nc(NC(=O)OC)[nH]c2c1 [Albendazole, reference compound] came out at 29.4

In plain terms, O=C(O[C@H]1Cc2c(O)cc(O)cc2O[C@@H]1c1ccc(O)c(O)c1)c1cc(O)c(O)c(O)c1 [CG, (+)-catechin-3-O-gallate] has a documented Selectivity Index (SI) O. ochengi Females of 14.7

Measured Selectivity Index (SI) O. ochengi Females, Oc1cc(O)c2c(c1)O[C@H](c1cc(O)c(O)c(O)c1)[C@@H](O)C2 [GC, (+)-gallocatechin] : 12.1

Per the records, this molecule ( Oc1cc(O)c2c(c1)O[C@H](c1cc(O)c(O)c(O)c1)[C@H](O)C2 [EGC, (−)-epigallocatechin] ) has Selectivity Index (SI) O. ochengi Females equal to 14.3

Please fill in: Selectivity Index (SI) O. ochengi Females reported for c1ccc([C@H]2CN3CCSC3=N2)cc1 [Levamisole, reference compound] = 13.0

Selectivity Index (SI) O. ochengi Females for O=C(OC1Cc2c(O)cc(O)cc2OC1c1ccc(O)c(O)c1)c1cc(O)c(O)c(O)c1 (single isomer, unassigned; (-)) [ECG, (−)-epicatechin-3-O-gallate] is 32.2

Summary for this molecule, O=C(OC1Cc2c(O)cc(O)cc2OC1c1cc(O)c(O)c(O)c1)c1cc(O)c(O)c(O)c1 (single isomer, unassigned; (-)) [EGCG, (−)-epigallocatechin-3-O-gallate] : Selectivity Index (SI) O. ochengi Females is 60.9
